Where do the numbers come from? From ChEMBL document CHEMBL4715739.

Assay: Cytotoxicity against human PBMC cells assessed as reduction in cell viability incubated for 72 hrs by Alamar blue assay
Type: cell-based
quantity: IC50 (µM)
Numeric only. Scale: µM

// query IC50 value for entry O=C1c2ccccc2-c2c3c(cc4ccnc1c24)OCO3 [LIRIODENINE]
34.8

* * *

I'd appreciate it if you could supply pIC50 values for the items below.
System: HepG2
Assay: Cytotoxicity against human HepG2 cells assessed as reduction in cell viability incubated for 72 hrs by Alamar blue assay
Format: functional, cell-based
Settings: HepG2, 72 h
API: returns pIC50 as number; meaning -log10 of concentration in mol/L.

// query pIC50 value for entry "COc1cccc2c1C(=O)c1c(O)c3c(c(O)c1C2=O)C[C@@](O)(C(=O)CO)C[C@@H]3O[C@H]1C[C@H](N)[C@H](O)[C@H](C)O1"
6.70

// query pIC50 value for entry "O=C1c2ccccc2-c2c3c(cc4ccnc1c24)OCO3"
5.08
